Ref: paper PMC9352680

subject of test: T1, PUF4 RNA-binding domain (Saccharomyces cerevisiae, UniProt P25339 537-888)
T1 sequence: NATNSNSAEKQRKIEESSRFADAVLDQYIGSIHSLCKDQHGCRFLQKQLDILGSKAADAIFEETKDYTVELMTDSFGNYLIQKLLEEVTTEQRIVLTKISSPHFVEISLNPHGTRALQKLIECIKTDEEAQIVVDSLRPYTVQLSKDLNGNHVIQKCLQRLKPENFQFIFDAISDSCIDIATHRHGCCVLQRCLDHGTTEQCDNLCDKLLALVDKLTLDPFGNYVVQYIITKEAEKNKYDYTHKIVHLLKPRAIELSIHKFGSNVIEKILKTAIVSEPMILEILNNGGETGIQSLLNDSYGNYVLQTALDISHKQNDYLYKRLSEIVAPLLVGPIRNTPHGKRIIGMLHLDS
assay overview: Mg; RNA-MaP; 20 mM Na-HEPES pH 7.4, 30 mM KOAc, 0.75 mM MgCl2, 0.1% Tween-20, 5% glycerol, 0.1 mg/mL BSA, 2 mM DTT; 25 C; 0.0125-409.6 nM protein
assay context: tags: N-His6-TEV cleaved; C-SNAP kept, Cy3B-labelled; label: tethered on chip by stalled RNA polymerase
metric: Kd (nM)
Give bare numbers, in nM.

Consider the reported Kd for these binders:
ACAAACACUAUAUAUUACCACAAAC (ssRNA) [Id_ii_S3_P4E.3_K4.2_C4.2_[C-2A]_[T-1C]_H4.2_A4.1_F4.1_T4.2_[G10C]_[T11C]] = 33.5
UCUCUUUGUAUUAUCUCUCUAUCUCUU (ssRNA) [Ie_S1_P5E.1_K5.1_C5.1_H5.1_A5.1_F5.1_[+8CTCTC]_T5.1] = 21.4
UCUCUUUAUAUCUUAUCUCUU (ssRNA) [Ib_S1_P4E.1_K4.1_C4.1_H4.1_[G2A]_A4.1_[A6C]_F4.1_T4.1] = 672
Id_ii_S4_P5E.3_K5.2_C5.2_[C-2A]_[T-1C]_H5.2_A5.1_F5.1_T5.2_[A12C] (ssRNA) RNA: UUUGACAACUGAUCGUUCUUUCUACUAUAUUAUUAUCUUCUUUCUCGAUCAGUUGUCUUU = 216
UCUCUUUGUAUUCCUUCUCUU (ssRNA) [Ic_S1_P4E.1_K4.1_C4.1_H4.1_A4.1_[A6T]_[T7C]_F4.1_[T8C]_[A9T]_T4.1] = 114

Give me Kd for each of these binders, listed below.
1. Ie_S4_P3E.2_K3.1_C3.2_[+-2TTCC]_H3.1_A3.1_F3.1_T3.2 (ssRNA) RNA: UUUGACAACUGAUCGUUCUUUCUCUUCCUUGUAUAUAUAUUCUUUCUCGAUCAGUUGUCUUU
2. Ib_S4_P4E.1_K4.1_C4.1_H4.1_[T1G]_A4.1_F4.1_[A9G]_T4.1 (ssRNA) RNA: UUUGACAACUGAUCGUUCUUUCUGGUAUAUUGUUCUUUCUCGAUCAGUUGUCUUU
3. Ic_S2_P3E.1_K3.1_C3.1_H3.1_A3.1_[T5G]_[A6T]_F3.1_[T7G]_[A8C]_T3.1 (ssRNA) RNA: UUUGAUUAAUAUGAUAUCGUUCUUUCUUGUAGUGCUUCUUUCUCGAUAUCAUAUUAAUCUUU
4. UCUCUUGUUAUAUUAUUAUCUCUCUU (ssRNA) [Id_ii_S1_P5E.3_K5.2_C5.2_[C-2G]_H5.2_A5.1_F5.1_T5.2_[A12C]]

1. 1.01
2. 1710
3. 390
4. 16.3

Please supply Kd for each of the following items, keeping them in order.
1. Ib_S4_P4E.1_K4.1_C4.1_H4.1_[A4C]_A4.1_[A6T]_F4.1_T4.1 (ssRNA) RNA: UUUGACAACUGAUCGUUCUUUCUUGUCUUUUAUUCUUUCUCGAUCAGUUGUCUUU
2. Ic_S2_P4E.1_K4.1_C4.1_H4.1_A4.1_[A6T]_F4.1_[T8C]_[A9C]_T4.1 (ssRNA) RNA: UUUGAUUAAUAUGAUAUCGUUCUUUCUUGUAUUUCCUUCUUUCUCGAUAUCAUAUUAAUCUUU
3. UCUCUUUGUCUUAUUAUCUCUU (ssRNA) [Ia_S1_P5E.1_K5.1_C5.1_H5.1_[A4C]_A5.1_F5.1_T5.1]
4. UCUCUUUGUACAUCAUCUCUU (ssRNA) [Ic_S1_P4E.1_K4.1_C4.1_H4.1_A4.1_[T5C]_F4.1_[T8C]_T4.1]

29.8
52.7
38.3
8.45

Could you tell me Kd for each of these binders? They are listed below.
1. ACAAACAUACACUAUAUCACAAAC (ssRNA) [Id_ii_S3_P3E.4_K3.3_C3.2_[C-2A]_H3.3_A3.1_F3.1_T3.2_[A10C]]
2. Ic_S2_P5E.1_K5.1_C5.1_H5.1_A5.1_[T5G]_[A7C]_F5.1_[T8G]_[A10G]_T5.1 (ssRNA) RNA: UUUGAUUAAUAUGAUAUCGUUCUUUCUUGUAGUCGUGUUCUUUCUCGAUAUCAUAUUAAUCUUU
3. ACAAACCAUAUAUAUAAGACAAAC (ssRNA) [Id_ii_S3_P3E.3_K3.2_C3.2_[T-1A]_H3.2_A3.1_F3.1_T3.2_[T9A]_[A10G]]
4. UCUCUUCAUGUAUAUACUUCUCUU (ssRNA) [Id_ii_S1_P3E.2_K3.1_C3.2_[T-1A]_H3.1_A3.1_F3.1_T3.2_[T9C]_[A10T]]
5. Ic_S4_P5E.1_K5.1_C5.1_H5.1_A5.1_[T6C]_[A7T]_F5.1_[T8A]_[T9G]_[A10C]_T5.1 (ssRNA) RNA: UUUGACAACUGAUCGUUCUUUCUUGUAUCUAGCUUCUUUCUCGAUCAGUUGUCUUU
6. Ie_S4_P5E.1_K5.1_C5.1_H5.1_[+4CT]_A5.1_F5.1_T5.1 (ssRNA) RNA: UUUGACAACUGAUCGUUCUUUCUUGUACUUUAUUAUUCUUUCUCGAUCAGUUGUCUUU

1. 1230
2. 492
3. 546
4. 13.2
5. 47.4
6. 0.642

Provide Kd for all items below, preserving their order.
1. Ib_S4_P5E.1_K5.1_C5.1_H5.1_[A4C]_A5.1_[T5G]_F5.1_T5.1 (ssRNA) RNA: UUUGACAACUGAUCGUUCUUUCUUGUCGUAUUAUUCUUUCUCGAUCAGUUGUCUUU
2. Ie_S2_P5E.1_K5.1_C5.1_H5.1_[+2CC]_A5.1_F5.1_T5.1 (ssRNA) RNA: UUUGAUUAAUAUGAUAUCGUUCUUUCUUGCCUAUUAUUAUUCUUUCUCGAUAUCAUAUUAAUCUUU
3. UCUCUUUGUAUUGGUUCUCUU (ssRNA) [Ic_S1_P4E.1_K4.1_C4.1_H4.1_A4.1_[A6T]_[T7G]_F4.1_[T8G]_[A9T]_T4.1]
4. UCUCUUGUACACUAUUAGUUCUCUU (ssRNA) [Id_ii_S1_P4E.4_K4.3_C4.2_[C-2G]_H4.3_A4.1_F4.1_T4.2]

1. 34.4
2. 679
3. 500
4. 1.27

Given ACAAACUGUAUUAUCUCUCUAACAAAC (ssRNA) [Ie_S3_P5E.1_K5.1_C5.1_H5.1_A5.1_F5.1_[+8CTCTC]_T5.1] , state its recorded Kd.
29.1
